B1: Pistol ribozyme (parent)
chain: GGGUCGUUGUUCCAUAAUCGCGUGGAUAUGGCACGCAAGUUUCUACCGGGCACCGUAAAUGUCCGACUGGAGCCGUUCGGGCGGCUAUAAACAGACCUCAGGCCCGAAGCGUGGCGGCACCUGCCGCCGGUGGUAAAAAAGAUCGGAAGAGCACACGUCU

# Variants of: B1
# assay-remarks: aptazyme ON/OFF ratio, guanine; higher = stronger switching; co-transcriptional cleavage with and without guanine
experimental-endpoint: aptazyme ON/OFF ratio
Response field accepts a number only; no unit should be typed.

Look over these answered cases.
>  <variant-description>
U7A U8G G9U U10G U11A C12G

>  <aptazyme ON/OFF ratio>
1.46

$$$$
>  <variant-description>
U7C U8C G9A U10C C12G

>  <aptazyme ON/OFF ratio>
1.33

$$$$
>  <variant-description>
U7G U10C U11A C12U C13G

>  <aptazyme ON/OFF ratio>
1.11

$$$$
>  <variant-description>
U7A G9A U11C C12G C13U

>  <aptazyme ON/OFF ratio>
1.15

$$$$
>  <variant-description>
U7G U8A G9C U11G C12G C13A

>  <aptazyme ON/OFF ratio>
1.01

$$$$
>  <variant-description>
U7C U8G U10G U11C C12G C13A

>  <aptazyme ON/OFF ratio>
1.16

$$$$

Answer with the recorded aptazyme ON/OFF ratio of U7G U8A G9A U10G U11C C13U only.
1.05

Answer with the recorded aptazyme ON/OFF ratio of U7A U8G G9U U10C U11G C13A only.
1.28

Answer with the recorded aptazyme ON/OFF ratio of G9U U11G C12G C13G only.
1.36
